ASSAY_TARGET: Voltage-dependent T-type calcium channel subunit alpha-1G (Homo sapiens)
Sequence (O43497 whole entry): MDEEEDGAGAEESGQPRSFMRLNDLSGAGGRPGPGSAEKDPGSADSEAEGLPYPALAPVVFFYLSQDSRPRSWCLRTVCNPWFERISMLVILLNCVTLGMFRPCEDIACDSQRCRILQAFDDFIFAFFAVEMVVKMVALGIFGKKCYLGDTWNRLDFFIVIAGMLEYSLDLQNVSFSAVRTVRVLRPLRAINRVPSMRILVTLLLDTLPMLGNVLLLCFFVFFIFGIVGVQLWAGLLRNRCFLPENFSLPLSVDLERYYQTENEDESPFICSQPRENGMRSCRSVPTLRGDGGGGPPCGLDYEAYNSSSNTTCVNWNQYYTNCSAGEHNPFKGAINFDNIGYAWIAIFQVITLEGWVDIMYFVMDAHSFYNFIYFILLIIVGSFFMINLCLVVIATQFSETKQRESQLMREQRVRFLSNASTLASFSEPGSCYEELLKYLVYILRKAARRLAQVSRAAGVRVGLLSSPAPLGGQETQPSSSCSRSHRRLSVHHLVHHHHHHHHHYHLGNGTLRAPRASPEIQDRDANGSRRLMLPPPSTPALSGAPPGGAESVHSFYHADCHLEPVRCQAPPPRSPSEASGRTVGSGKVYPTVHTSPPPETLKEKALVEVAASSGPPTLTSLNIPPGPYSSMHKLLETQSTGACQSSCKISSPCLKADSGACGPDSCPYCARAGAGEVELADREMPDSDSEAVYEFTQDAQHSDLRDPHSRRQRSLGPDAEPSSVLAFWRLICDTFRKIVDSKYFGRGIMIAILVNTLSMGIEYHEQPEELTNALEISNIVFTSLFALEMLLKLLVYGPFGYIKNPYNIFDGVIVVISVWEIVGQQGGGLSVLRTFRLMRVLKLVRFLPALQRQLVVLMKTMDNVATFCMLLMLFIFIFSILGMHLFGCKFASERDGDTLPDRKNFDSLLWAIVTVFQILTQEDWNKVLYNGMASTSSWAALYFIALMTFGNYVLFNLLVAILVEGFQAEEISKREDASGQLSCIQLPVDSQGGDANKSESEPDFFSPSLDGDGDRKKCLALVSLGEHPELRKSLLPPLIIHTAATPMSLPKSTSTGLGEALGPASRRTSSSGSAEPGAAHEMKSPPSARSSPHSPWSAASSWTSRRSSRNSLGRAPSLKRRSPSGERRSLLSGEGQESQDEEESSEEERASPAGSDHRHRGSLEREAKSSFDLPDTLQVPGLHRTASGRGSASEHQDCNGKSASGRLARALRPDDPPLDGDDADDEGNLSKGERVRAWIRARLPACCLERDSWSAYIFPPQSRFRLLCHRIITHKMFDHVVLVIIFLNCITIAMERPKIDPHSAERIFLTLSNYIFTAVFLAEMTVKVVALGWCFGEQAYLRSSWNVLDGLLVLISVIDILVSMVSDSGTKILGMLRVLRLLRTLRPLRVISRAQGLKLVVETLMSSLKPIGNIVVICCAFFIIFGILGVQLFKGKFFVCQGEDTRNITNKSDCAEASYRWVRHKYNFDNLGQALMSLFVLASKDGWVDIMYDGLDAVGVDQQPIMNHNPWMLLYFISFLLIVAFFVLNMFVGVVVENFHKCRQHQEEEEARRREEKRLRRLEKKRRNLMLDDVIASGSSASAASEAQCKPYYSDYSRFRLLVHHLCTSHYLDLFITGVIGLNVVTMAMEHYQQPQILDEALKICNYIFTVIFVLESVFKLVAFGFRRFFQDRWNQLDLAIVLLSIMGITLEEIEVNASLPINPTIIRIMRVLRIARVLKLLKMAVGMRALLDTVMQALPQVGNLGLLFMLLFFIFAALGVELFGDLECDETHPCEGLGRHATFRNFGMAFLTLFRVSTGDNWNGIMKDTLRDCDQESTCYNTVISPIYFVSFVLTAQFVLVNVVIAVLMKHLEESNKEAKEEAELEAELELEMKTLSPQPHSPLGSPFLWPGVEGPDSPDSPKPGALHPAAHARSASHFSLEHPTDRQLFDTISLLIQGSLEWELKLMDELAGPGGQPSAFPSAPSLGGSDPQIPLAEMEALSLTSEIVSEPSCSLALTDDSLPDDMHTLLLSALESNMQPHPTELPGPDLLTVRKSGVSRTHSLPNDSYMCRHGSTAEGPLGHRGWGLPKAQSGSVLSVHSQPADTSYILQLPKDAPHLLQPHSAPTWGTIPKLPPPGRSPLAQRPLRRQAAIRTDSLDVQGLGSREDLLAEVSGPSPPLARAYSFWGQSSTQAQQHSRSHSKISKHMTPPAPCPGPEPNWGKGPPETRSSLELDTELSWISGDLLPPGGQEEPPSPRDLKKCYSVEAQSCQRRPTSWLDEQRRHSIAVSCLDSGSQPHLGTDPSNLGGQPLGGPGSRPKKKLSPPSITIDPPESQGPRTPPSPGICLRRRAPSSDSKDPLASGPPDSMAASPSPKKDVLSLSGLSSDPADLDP
METHOD_NOTES: Inhibition of recombinant human Cav3.1 expressed in HEK293 cells assessed as reduction in KCl-induced increase in intracellular calcium level at 10 uM by fura-2 AM indicator based FDSS assay relative to control
Type: cell-based
Is inhibition at least 40%? Then Met. If not, Not met.

# example entries with known answers
| COMPOUND | CATEGORY |
| --- | --- |
| CC(C)c1cc(C(=O)NC[C@H]2CCN(CCc3ccc(Cl)c(Cl)c3)C2)on1 | Met |
| CC(C)c1cc(C(=O)NC[C@H]2CCN(C(=O)CC(C)(C)C)C2)on1 | Not met |
| COC(=O)C1=C(C)NC(C)=C(C(=O)NC[C@H]2CCN(CCc3ccc(C(F)(F)F)cc3)C2)C1c1cccc([N+](=O)[O-])c1 (stereo partly specified) | Met |
| COC(=O)C1=C(C)NC(C)=C(C(=O)NC[C@H]2CCN(CCc3ccc(Cl)c(F)c3)C2)C1c1cccc([N+](=O)[O-])c1 (stereo partly specified) | Met |
| COC(=O)C1=C(C)NC(C)=C(C(=O)NC[C@H]2CCN(CCc3ccc(C)c(C(F)(F)F)c3)C2)C1c1cccc([N+](=O)[O-])c1 (stereo partly specified) | Met |

Prompt: Say whether COC(=O)C1=C(C)NC(C)=C(C(=O)NC[C@H]2CCN(CCc3ccc(OC(F)(F)F)c(F)c3)C2)C1c1cccc([N+](=O)[O-])c1 (stereo partly specified) shows inhibition of 40% or more.
Completion: Not met

###

METHOD_NOTES: Stability in human liver microsomes assessed as parent compound remaining measured after 30 mins
Type: ADME, Microsome
MEASUREMENT_CONTEXT: read-out: Stability
REPORTED_METRIC: remaining at 0.5 h (%)
Give bare numbers, in %.

Look over these answered cases.
| COMPOUND | remaining at 0.5 h / % |
| --- | --- |
| COC(=O)C1=C(C)NC(C)=C(C(=O)NC[C@H]2CCN(CCc3ccc(OC(F)(F)F)c(F)c3)C2)C1c1cccc([N+](=O)[O-])c1 (stereo not given in full) | 0.25 |
| COC(=O)C1=C(C)NC(C)=C(C(=O)NC[C@H]2CCN(CCc3ccc(Cl)c(Cl)c3)C2)C1c1cccc([N+](=O)[O-])c1 (stereo not given in full) | 2.87 |
| Cc1ccc(CCN2CC[C@H](CNC(=O)c3cc(C(C)C)no3)C2)cc1C(F)(F)F | 39.8 |
| COC(=O)C1=C(C)NC(C)=C(C(=O)NC[C@H]2CCN(CCc3ccc(C)c(C(F)(F)F)c3)C2)C1c1cccc([N+](=O)[O-])c1 (stereo not given in full) | 0.63 |
| COC(=O)C1=C(C)NC(C)=C(C(=O)NC[C@H]2CCN(CCc3ccc(C(F)(F)F)cc3)C2)C1c1cccc([N+](=O)[O-])c1 (stereo not given in full) | 2.01 |

# batch: return remaining at 0.5 h for each of the 4 compounds below
1. CC(C)c1cc(C(=O)NC[C@H]2CCN(CCc3ccc(OC(F)(F)F)c(F)c3)C2)on1
2. CC(C)c1cc(C(=O)NC[C@H]2CCN(CCc3ccc(Cl)c(F)c3)C2)on1
3. CC(C)c1cc(C(=O)NC[C@H]2CCN(CCc3ccc(C(F)(F)F)cc3)C2)on1
4. COC(=O)C1=C(C)NC(C)=C(C(=O)NC[C@H]2CCN(CCc3ccc(Cl)c(F)c3)C2)C1c1cccc([N+](=O)[O-])c1 (stereo not given in full)

Completion:
1. 35.2
2. 26.2
3. 34.2
4. 2.13

Measured remaining at 0.5 h of CC(C)c1cc(C(=O)NC[C@H]2CCN(CCc3ccc(Cl)c(Cl)c3)C2)on1 : 51.7

###

ASSAY_TARGET: Voltage-dependent T-type calcium channel subunit alpha-1G (Homo sapiens)
METHOD_NOTES: Inhibition of recombinant human Cav3.1 expressed in HEK293 cells assessed as suppression of KCl-evoked current by whole-cell patch clamp method
REPORTED_METRIC: pIC50
Numbers only, as −log10 of the molar value.

Measured pIC50 of Cc1ccc(CCN2CC[C@H](CNC(=O)c3cc(C(C)C)no3)C2)cc1C(F)(F)F : 5.29

###

ASSAY_TARGET: CYP2C19 (Homo sapiens, UniProt P33261)
METHOD_NOTES: Inhibition of CYP2C19 (unknown origin) assessed as residual activity at 10 uM relative to control
Format: ADME
MEASUREMENT_CONTEXT: read-out: Activity
REPORTED_METRIC: activity at 10 µM (%)
Answers are plain numbers, in %.

Measured activity at 10 µM of Cc1ccc(CCN2CC[C@H](CNC(=O)c3cc(C(C)C)no3)C2)cc1C(F)(F)F : 50.4

###

ASSAY_TARGET: Voltage-dependent T-type calcium channel subunit alpha-1H (Homo sapiens, UniProt O95180)
Sequence (O95180 whole entry): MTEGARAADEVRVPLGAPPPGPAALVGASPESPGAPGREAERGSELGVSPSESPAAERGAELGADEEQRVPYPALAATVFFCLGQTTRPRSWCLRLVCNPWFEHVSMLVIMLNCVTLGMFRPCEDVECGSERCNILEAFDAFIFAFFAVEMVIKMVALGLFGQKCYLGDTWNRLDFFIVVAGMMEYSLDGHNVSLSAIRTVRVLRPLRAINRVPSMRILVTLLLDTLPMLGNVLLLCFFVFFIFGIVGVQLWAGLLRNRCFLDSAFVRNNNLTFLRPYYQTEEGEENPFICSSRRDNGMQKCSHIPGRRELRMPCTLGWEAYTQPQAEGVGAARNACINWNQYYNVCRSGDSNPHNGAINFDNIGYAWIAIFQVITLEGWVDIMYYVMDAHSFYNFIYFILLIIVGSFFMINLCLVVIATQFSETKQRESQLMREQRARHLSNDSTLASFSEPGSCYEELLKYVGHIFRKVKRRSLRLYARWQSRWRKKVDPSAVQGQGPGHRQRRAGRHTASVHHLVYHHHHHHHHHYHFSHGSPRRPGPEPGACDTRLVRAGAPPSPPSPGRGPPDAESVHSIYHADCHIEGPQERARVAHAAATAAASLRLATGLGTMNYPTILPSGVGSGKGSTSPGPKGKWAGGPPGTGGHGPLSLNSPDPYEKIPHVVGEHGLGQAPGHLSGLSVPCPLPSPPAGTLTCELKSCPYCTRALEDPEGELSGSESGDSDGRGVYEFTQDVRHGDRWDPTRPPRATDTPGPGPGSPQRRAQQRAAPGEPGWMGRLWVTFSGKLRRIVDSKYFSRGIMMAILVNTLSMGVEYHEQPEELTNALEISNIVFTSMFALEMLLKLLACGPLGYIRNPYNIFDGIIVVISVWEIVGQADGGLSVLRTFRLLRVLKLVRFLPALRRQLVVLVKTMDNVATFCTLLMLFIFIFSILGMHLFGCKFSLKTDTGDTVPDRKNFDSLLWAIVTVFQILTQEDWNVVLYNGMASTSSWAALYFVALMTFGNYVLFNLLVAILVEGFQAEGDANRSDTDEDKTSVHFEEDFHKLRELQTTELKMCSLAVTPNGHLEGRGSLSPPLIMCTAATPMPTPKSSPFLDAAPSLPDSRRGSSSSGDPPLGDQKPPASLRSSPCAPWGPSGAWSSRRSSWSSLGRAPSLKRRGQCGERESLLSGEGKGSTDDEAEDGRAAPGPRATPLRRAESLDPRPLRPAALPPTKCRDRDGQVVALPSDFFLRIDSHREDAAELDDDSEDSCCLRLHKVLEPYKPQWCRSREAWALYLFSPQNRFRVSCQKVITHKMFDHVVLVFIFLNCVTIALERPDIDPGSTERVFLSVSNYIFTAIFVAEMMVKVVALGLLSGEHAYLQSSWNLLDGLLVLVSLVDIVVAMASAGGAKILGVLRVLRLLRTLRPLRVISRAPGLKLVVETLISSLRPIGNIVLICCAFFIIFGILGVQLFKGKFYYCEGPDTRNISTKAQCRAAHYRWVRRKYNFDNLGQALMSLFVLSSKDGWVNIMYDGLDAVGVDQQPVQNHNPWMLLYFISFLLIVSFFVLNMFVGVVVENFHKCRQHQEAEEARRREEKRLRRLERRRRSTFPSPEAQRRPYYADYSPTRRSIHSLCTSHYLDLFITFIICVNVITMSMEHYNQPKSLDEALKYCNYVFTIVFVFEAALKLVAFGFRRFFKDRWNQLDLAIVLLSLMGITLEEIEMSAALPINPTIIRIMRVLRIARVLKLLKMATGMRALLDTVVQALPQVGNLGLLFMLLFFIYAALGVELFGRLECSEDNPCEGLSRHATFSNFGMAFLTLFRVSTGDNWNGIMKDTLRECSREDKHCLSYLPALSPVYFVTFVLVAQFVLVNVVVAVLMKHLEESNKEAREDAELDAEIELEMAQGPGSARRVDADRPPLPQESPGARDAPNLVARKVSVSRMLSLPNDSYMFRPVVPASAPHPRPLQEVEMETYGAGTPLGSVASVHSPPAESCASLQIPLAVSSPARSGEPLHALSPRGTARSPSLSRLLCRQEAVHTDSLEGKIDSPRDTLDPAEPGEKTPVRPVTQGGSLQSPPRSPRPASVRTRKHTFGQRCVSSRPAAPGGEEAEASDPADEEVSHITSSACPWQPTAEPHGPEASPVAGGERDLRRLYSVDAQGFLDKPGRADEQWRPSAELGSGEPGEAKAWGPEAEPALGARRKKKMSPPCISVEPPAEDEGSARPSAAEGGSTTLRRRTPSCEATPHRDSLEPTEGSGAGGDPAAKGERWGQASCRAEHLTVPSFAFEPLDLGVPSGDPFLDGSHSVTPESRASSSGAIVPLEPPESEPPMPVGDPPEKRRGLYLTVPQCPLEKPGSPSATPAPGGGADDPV
METHOD_NOTES: Inhibition of Cav3.2 (unknown origin) assessed as reduction in KCl-induced increase in intracellular calcium level at 10 uM by fura-2 AM indicator based FDSS assay relative to control
Format: cell-based
Provide the recorded inhibition for the entries that follow.
Quick note: number first, unit second.

| COMPOUND | VALUE |
| --- | --- |
| CC(C)c1cc(C(=O)NC[C@H]2CCN(CCC(C)(C)C)C2)on1 | 21.1% |
| COC(=O)C1=C(C)NC(C)=C(C(=O)NC[C@H]2CCN(CCc3ccc(Cl)c(Cl)c3)C2)C1c1cccc([N+](=O)[O-])c1 (some centres not stated) | 31.3% |
| COC(=O)C1=C(C)NC(C)=C(C(=O)NC[C@H]2CCN(CCc3ccc(C(F)(F)F)cc3)C2)C1c1cccc([N+](=O)[O-])c1 (some centres not stated) | 34.1% |
| CC(C)c1cc(C(=O)NC[C@H]2CCN(C(=O)CC(C)(C)C)C2)on1 | 17.8% |
| CC(C)c1cc(C(=O)NC[C@H]2CCN(CCc3ccc(Cl)c(Cl)c3)C2)on1 | 69.7% |

# batch: return inhibition for each of the 2 compounds below
1. CC(C)c1cc(C(=O)NC[C@H]2CCN(CCc3ccc(Cl)c(F)c3)C2)on1
2. CC(C)c1cc(C(=O)NC[C@H]2CCN(CCc3ccc(C(F)(F)F)cc3)C2)on1

Completion:
["50.1%", "63.2%"]

###

ASSAY_TARGET: CYP2D6 (Homo sapiens, UniProt P10635)
METHOD_NOTES: Inhibition of CYP2D6 (unknown origin) assessed as residual activity at 10 uM relative to control
Format: ADME
MEASUREMENT_CONTEXT: read-out: Activity
REPORTED_METRIC: activity at 10 µM

Measured activity at 10 µM of Cc1ccc(CCN2CC[C@H](CNC(=O)c3cc(C(C)C)no3)C2)cc1C(F)(F)F : 31.2%
